Target: ACR-23(I301N) (Caenorhabditis elegans, UniProt G5EG88, I301N)
Sequence (G5EG88 20-545 I301N): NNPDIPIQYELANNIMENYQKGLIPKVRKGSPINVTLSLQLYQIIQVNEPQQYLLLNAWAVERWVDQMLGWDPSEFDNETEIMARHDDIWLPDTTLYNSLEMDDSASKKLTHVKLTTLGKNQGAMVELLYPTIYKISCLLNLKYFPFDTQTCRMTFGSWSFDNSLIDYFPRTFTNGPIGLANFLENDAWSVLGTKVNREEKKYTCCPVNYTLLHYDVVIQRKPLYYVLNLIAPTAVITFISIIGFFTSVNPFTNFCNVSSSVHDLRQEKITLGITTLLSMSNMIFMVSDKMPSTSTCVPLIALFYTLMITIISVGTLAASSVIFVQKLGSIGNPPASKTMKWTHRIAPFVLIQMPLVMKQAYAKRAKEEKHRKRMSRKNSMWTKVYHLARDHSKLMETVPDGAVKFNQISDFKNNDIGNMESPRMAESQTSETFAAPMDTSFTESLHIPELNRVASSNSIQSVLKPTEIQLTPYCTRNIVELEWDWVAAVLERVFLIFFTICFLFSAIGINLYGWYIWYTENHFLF
Test: two-electrode voltage clamp in Xenopus oocytes expressing ACR-23
Quantity name: pEC50
Keep in mind that pEC50 stands for -log10 of concentration in molar terms.

Entry under review: C[N+](C)(C)CC(=O)O . Reported pEC50?
3.78
